Tested on: Plasmodium falciparum
Experiment: NOVARTIS: Inhibition of Plasmodium falciparum 3D7 (drug-susceptible) proliferation in erythrocyte-based infection assay
Format: functional, organism-based
Settings: Plasmodium falciparum, 3D7
Binarize EC50 at 500 nM; below is 1, at or above is 0.

1) CC(C)CNC(=O)c1cc(NC(=O)c2cccs2)ccc1N1CCc2ccccc2C1 : 1

Now, please, on to the next compound.
Prompt: hey, is EC50 for COc1ccc(-c2c[n+](Cc3ccc(Cl)cc3Cl)c3n2CCC3)cc1 lower than 500 nM or not?
Completion: 1

###

Test: NOVARTIS: Cytotoxicity against human hepatocellular carcinoma cell line (Huh7)
Format: toxicity, cell-based, Huh-7
Conditions: Huh7 cells (hepatocellular carcinoma cell line)
Readings of CC50 for the listed compounds

Please review the following examples before continuing.
1. CCOC(=O)C1=C(C)NC2=C(C(=O)C(C(=O)OCC)C(c3ccccc3OC)C2)C1c1ccc(Cl)cc1 (stereo unspecified) : > 100 µM
2. Cc1n(-c2ccccc2)c2c([n+]1C)C(=O)c1ccccc1C2=O : 0.427 µM

Prompt: Please look up its CC50: O=C(CCl)NCCCN(C(=O)Nc1ccc(Cl)c(Cl)c1)c1ccccc1
Completion: > 0.931 µM

Prompt: One more compound: O=C1C(Nc2ccccc2)=C(N2CCCCC2)C(=O)c2ccccc21
Completion: 15 µM

Prompt: One more compound: COc1ccccc1C(c1nnnn1Cc1ccc(F)cc1)N1CCN(C)CC1 (stereo unspecified)
Completion: > 100 µM

Prompt: One more compound: Cc1ccc(Cl)cc1N1CCN(S(=O)(=O)c2ccc3c(c2)oc(=O)n3C)CC1
Completion: > 100 µM

Prompt: One more compound: CC1CCN(S(=O)(=O)c2ccc(C(=O)NCc3ccco3)cc2)CC1
Completion: > 100 µM

###

Assay: NOVARTIS: Cytotoxicity against human hepatocellular carcinoma cell line (Huh7)
Assay type: toxicity, cell-based, Huh-7
Details: Huh7 cells (hepatocellular carcinoma cell line)
Readings of CC50 for the listed compounds

Please review the following examples before continuing.
1) CCC(C)NC(=O)c1cc(NC(=O)/C=C/c2ccc([N+](=O)[O-])cc2)ccc1N1CCN(c2ccccc2OC)CC1 (stereo not given) : 5.55 µM
2) Clc1cccc(CSc2nc(Nc3ccc4c(c3)OCO4)c3ccccc3n2)c1 : > 82.9 µM
3) Cc1cccc(C)c1NC(=O)CN1C(=O)C(C)(C)Oc2ccc(C(=O)NC(C)(C)C)cc21 : > 100 µM
4) CC(C)N1CC=C(c2c[nH]c3ccccc23)CC1 : > 100 µM
5) O=C(C1CCN(c2nnnn2-c2ccccc2)CC1)N1CCc2ccccc2C1 : > 100 µM
6) COc1cc2c(Nc3ccc(Br)cc3F)ncnc2cc1OCC1CCN(C)CC1 : 37.2 µM
7) CCC[P+](CCC)(CCC)CC1OCc2ccccc2CO1 : > 100 µM
8) Cc1cccc(-n2nc3c(c2NC(=O)c2ccc4c(c2)OCO4)CS(=O)(=O)C3)c1C : > 10 µM

Prompt: Please look up its CC50: CCN(CC)S(=O)(=O)c1ccc(C(=O)NCc2nnc(SCC(=O)N3CCc4ccccc43)n2-c2ccccc2OC)cc1
Completion: > 10 µM

Prompt: One more compound: CN1C(=O)N(C)C(NNC(N)=S)C1NNC(N)=S (stereo not given)
Completion: > 100 µM
